Where these numbers come from: paper PMC6044507

target: human GPR84 (Homo sapiens); assay: cell-based; format: cell-based; settings: compound 10 μM; forskolin 10 μM
Sequence (Q9NQS5 whole entry): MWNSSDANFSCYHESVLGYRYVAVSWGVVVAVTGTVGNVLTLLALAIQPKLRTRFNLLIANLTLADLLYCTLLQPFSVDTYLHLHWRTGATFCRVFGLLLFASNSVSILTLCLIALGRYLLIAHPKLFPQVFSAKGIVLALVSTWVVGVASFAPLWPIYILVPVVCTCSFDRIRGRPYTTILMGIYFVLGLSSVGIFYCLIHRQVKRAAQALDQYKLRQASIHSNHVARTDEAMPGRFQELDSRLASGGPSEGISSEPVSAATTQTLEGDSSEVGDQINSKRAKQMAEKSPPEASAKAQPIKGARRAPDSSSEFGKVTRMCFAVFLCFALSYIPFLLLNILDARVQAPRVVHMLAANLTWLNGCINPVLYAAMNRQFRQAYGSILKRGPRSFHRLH
// reported percent receptor activation at 10 μM, cAMP assay for each item listed
// note: answer is a bare numeric in %

O=Nc1c(NCCc2ccccc2)[nH]c(=O)[nH]c1=O = 32
CCNc1cc(=O)[nH]c(=O)[nH]1 = 15
O=c1cc(NCCc2ccccc2Br)[nH]c(=O)[nH]1 = 19
CC(C)CNc1cc(=O)[nH]c(=O)[nH]1 = 11

# input Suppose we examine the compound O=c1[nH]c(NCCCc2ccccc2)c(Br)c(=O)[nH]1 ; what percent receptor activation at 10 μM, cAMP assay value has been reported?
# output 15

# input Item: CCCCC(CC)CNc1cc(=O)[nH]c(=O)[nH]1 (racemic) [Compound 24, N^6-(R,S)-(2-ethyl)hexyluracil]
# output 14

###

Let's look at some compounds and their measured pEC50.
target: human GPR84 (Homo sapiens, UniProt Q9NQS5); assay: cell-based; settings: EC50 ± SEM, β-arrestin assay, CHO cells expressing human GPR84
Sequence (Q9NQS5 whole entry): as above
Sequence (P32121 whole entry partner): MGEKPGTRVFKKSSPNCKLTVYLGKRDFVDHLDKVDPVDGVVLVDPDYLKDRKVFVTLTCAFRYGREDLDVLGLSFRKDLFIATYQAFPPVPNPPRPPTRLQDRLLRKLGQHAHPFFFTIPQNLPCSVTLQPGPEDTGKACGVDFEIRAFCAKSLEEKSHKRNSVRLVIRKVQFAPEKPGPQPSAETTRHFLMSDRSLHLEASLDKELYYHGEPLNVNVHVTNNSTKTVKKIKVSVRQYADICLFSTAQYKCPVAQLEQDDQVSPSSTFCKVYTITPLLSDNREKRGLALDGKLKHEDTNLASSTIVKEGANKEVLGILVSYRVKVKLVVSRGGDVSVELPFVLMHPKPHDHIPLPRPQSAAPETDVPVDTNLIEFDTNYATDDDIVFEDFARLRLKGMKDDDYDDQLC
// pEC50 here means minus log10 of the molar concentration (mol/L)

O=c1cc(NCCc2cccc(Br)c2)[nH]c(=O)[nH]1 = 6.72
CCCCCCCCN(C)c1cc(=O)[nH]c(=O)[nH]1 = 6.19
O=c1cc(N2CCC(Cc3ccccc3)CC2)[nH]c(=O)[nH]1 = 6.22
O=c1[nH]c(NCCc2ccc(Br)cc2)c(Br)c(=O)[nH]1 = 5.17
COc1ccc(CCNc2cc(=O)[nH]c(=O)[nH]2)cc1 = 6.12

# input May I ask what pEC50 has been recorded for O=c1cc(N2CCN(c3ccc(Cl)cc3)CC2)[nH]c(=O)[nH]1 ?
# output 5.74

# input Check O=c1cc(NCCc2ccc(F)cc2)[nH]c(=O)[nH]1 too.
# output 5.70

# input Similarly, O=c1cc(NCCc2ccccc2Cl)[nH]c(=O)[nH]1 ?
# output 5.89

# input # iterate: CCCCCCCCCNc1cc(=O)[nH]c(=O)[nH]1
# output 7.47

# input Same question for CCCCCNc1cc(=O)[nH]c(=O)[nH]1 please.
# output 5.32

# input What about this compound? CCc1ccc(CCNc2cc(=O)[nH]c(=O)[nH]2)cc1
# output 6.92

# input Cool, now O=c1cc(NCCCCCCCO)[nH]c(=O)[nH]1
# output 5.68

###

molecular target: human GPR84 (Homo sapiens, UniProt Q9NQS5); experiment: cell-based; conditions: EC50 ± SEM, β-arrestin assay, CHO cells expressing human GPR84
Let's look at some compounds and their measured EC50.

Use the examples below as a reference point.
COc1ccc(CCNc2cc(=O)[nH]c(=O)[nH]2)cc1OC = > 10 µM
O=c1cc(NCCc2c[nH]c3ccccc23)[nH]c(=O)[nH]1 = > 10 µM

Please turn your attention to the following entry.
# input For the compound CCCCCCCCCCNc1cc(=O)n(C)c(=O)[nH]1 , what EC50 is on record?
# output > 10 µM
